Target chain: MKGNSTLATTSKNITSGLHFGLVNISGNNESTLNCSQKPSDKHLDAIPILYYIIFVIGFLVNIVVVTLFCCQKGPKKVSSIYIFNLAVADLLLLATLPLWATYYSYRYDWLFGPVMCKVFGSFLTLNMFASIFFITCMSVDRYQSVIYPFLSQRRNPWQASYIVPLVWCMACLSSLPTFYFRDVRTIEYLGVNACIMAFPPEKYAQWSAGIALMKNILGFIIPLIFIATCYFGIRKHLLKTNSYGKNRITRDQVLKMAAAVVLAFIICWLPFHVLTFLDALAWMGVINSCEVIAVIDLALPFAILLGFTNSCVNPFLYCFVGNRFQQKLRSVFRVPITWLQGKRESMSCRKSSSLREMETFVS
Quick list: pIC50 per entry.
Bear in mind: pIC50 is minus log10 of a mol/L concentration; give just that figure.

COc1ccc2c(c1OCC#Cc1ccc(F)cc1)C[C@@H](C(=O)NS(=O)(=O)N(C)C)N(C(=O)C(c1ccccc1)c1ccccc1)C2: 6.69

Continue with the molecule presented below.
// lookup pIC50 for "COc1ccc2c(c1OCc1ccccc1)C[C@@H](C(=O)NS(=O)(=O)N(C)C)N(C(=O)C(c1ccccc1)c1ccccc1)C2"
7.96
